Hi! I'm sharing some Ki results obtained with UniProt:P07374.
Sequence (P07374 whole entry): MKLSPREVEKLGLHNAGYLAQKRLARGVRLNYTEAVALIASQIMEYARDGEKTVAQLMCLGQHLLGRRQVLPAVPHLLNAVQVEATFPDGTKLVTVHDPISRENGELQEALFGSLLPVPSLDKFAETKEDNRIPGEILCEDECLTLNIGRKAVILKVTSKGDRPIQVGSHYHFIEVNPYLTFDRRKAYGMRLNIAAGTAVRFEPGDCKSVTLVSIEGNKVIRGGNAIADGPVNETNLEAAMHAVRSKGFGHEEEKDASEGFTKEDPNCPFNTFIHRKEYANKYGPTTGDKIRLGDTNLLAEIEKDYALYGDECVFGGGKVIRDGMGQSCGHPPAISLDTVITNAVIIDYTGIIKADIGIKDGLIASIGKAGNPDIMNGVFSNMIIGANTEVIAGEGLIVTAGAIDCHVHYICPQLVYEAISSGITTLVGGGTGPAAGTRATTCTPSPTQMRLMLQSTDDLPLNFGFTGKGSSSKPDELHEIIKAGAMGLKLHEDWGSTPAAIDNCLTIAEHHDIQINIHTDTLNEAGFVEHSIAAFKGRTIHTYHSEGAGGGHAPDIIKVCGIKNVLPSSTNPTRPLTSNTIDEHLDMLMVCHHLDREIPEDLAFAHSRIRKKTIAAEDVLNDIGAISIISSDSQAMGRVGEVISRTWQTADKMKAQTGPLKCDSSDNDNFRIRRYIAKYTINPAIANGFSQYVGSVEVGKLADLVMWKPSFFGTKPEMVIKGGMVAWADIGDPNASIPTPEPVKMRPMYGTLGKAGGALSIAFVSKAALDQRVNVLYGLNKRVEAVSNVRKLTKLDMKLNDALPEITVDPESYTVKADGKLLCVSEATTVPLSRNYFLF
Give bare numbers, in nM.

As a guide, the following entries are already answered.
1. CC(C)N(C(=[Se])N(C)C)C1CCCCC1 | 25
2. CCCCCCCCCCCCNC(=S)N(C)C | 124
3. CN(C)C(=S)Nc1ccc(Br)cc1 | 255

For every item below, please supply its Ki.
1. CN(C)C(=[Se])NCc1ccc(Br)cc1
2. C[C@H](NC(=[Se])N(C)C)c1cccc2ccccc12

stdout:
135
94
